# EC50 values compiled below
measured_target: HuCD100-His (human, UniProt Q92854)
Sequence (Q92854 22-734): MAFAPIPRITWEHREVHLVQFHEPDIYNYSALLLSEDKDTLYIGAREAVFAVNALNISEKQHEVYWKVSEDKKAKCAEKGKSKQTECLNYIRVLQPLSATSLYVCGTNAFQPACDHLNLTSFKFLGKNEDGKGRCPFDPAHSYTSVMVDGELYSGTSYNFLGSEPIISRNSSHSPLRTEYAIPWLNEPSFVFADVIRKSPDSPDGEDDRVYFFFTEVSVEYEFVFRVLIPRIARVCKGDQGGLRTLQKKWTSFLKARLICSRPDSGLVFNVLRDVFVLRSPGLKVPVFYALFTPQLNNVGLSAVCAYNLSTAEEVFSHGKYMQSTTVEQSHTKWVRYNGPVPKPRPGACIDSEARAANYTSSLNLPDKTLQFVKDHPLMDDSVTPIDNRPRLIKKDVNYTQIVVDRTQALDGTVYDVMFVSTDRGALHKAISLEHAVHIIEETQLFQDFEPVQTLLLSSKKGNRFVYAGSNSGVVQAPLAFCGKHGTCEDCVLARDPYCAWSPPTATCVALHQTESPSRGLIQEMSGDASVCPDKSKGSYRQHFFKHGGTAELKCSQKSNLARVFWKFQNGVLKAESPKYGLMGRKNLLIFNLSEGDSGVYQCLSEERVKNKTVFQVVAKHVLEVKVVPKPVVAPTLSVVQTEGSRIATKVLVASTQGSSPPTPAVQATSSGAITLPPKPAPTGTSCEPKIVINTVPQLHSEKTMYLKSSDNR
measurement_protocol: ELISA
Respond with the bare value in µg/mL.

Documented EC50 of H12 (antibody, V domains shown) VH: QVQLQESGPGLVKPSGTLSLTCAVSGGSISSSNWWSWVRQPPGKGLEWIGEIYHSGSTNYNPSLKSRVTISVDKSKNQFSLKLSSVTAADTAVYYCARFVSSGYLGAFDIWGQGTMVTVSS VL: QSVLTQPPSVSVSPGQTASITCSGDRLGDKYSYWYQQKPGQSPVLVIYQDSKRPSGIPERFSGSNSGNTATLTISGTQAMDEADYYCQVWDSSTAVFGGGTKLTVL : 0.0113

Record H96 (antibody, V domains shown) VH: QVQLQQWGAGLLKPSETLSLTCAVYGGSFSGYYWSWIRQPPGKGLEWIGEINHSGSTNYNPSLKSRVTISVDTSKNQFSLKLSSVTAADTAVYYCARESNSYGYGTDYWGQGTLVTVSS VL: QSALTQPPSVSVSPGQTATITCSGDKLGEKYAFWYQQKPGQSPVLVIYQDNKRPSGIPERFTGSNSGNTATLTIFGTQTMDEADYYCQAWDSSTYVFGTGTKVTVL , field EC50: 0.00968

C-B71 (antibody, V domains shown) VH: QVQLQESGPGLVKPSQTLSLTCTVSGGSISSGGYYWSWIRQHPGKGLEWIGYIYYSGSTYYNPSLKSRVTISVDTSKNQFSLKLSSVTAADTAVYYCAREGVAAAGIDYWGQGTPVTVSS VL: NIQLTQSPSSVSASVGDRVTITCRASQGISSWLAWYQQKPGKAPKLLISTASSVQSGVPTRFSASGSGTDFTLTISSLQPEDFATYYCQQGYRTPWTFGQGTKVEIK has a reported EC50 of 0.0119
